# test: Therapeutic index, ratio of CT50 for mouse L929 cells to Candida albicans ATCC 10231
# Format: cell-based
# setup conditions: read-out: TI
# label = true (1) if selectivity ratio < 1 else false (0)

For orientation, consider the following solved cases.
>  <compound>
CCC[N+](C)(C)CC1(C)COC(=O)N1Cl.[Cl-] (centres undefined)

>  <assigned category>
false (0)

$$$$
>  <compound>
CC1(C[N+]2(C)CCCC2)COC(=O)N1Cl.[Cl-] (centres undefined)

>  <assigned category>
false (0)

$$$$

Given the entry CC1(C)C(C[N+](C)(C)C)OC(=O)N1Cl.[Cl-] (centres undefined) , would its reported selectivity ratio be below 1?
false (0)

Cool, now CC1(CS(=O)(=O)[O-])COC(=O)N1Cl.[Na+] (centres undefined)
true (1)

Cool, now CC[N+](C)(C)CC1(C)COC(=O)N1Cl.[Cl-] (centres undefined)
false (0)

Cool, now `C[N+]1(C)CCC2(CC1)CN(Cl)C(=O)O2.[Cl-]`
true (1)

Cool, now CC1(CS(=O)(=O)CCS(=O)(=O)[O-])COC(=O)N1Cl.[Na+] (centres undefined)
false (0)

Cool, now `CC1(C)COC(=O)N1Cl`
true (1)

----------
# test: Therapeutic index, ratio of CT50 for mouse L929 cells to Escherichia coli ATCC 25922
# Format: cell-based
# setup conditions: pooled result: one value given for 2 cell lines, strains, targets or settings, read-out: TI
quantity name: selectivity ratio
Kindly provide the number alone.

These recorded examples may help you get a feel for the data.
>  <compound>
C[N+]1(C)CCC2(CC1)CN(Cl)C(=O)O2.[Cl-]

>  <selectivity ratio>
7.9

$$$$
>  <compound>
CC1(C)COC(=O)N1Cl

>  <selectivity ratio>
5.2

$$$$
>  <compound>
CC[N+](C)(C)CC1(C)COC(=O)N1Cl.[Cl-] (stereo not given)

>  <selectivity ratio>
78

$$$$
>  <compound>
CC1(C)C(CS(=O)(=O)[O-])OC(=O)N1Cl.[Na+] (stereo not given)

>  <selectivity ratio>
2.9

$$$$
>  <compound>
CC1(CS(=O)(=O)CCS(=O)(=O)[O-])COC(=O)N1Cl.[Na+] (stereo not given)

>  <selectivity ratio>
8.5

$$$$

# selectivity ratio lookup, item CCC[N+](C)(C)CC1(C)COC(=O)N1Cl.[Cl-] (stereo not given)
122

Cool, now CC1(C)C(C[N+](C)(C)C)OC(=O)N1Cl.[Cl-] (stereo not given)
7.6

Cool, now CC1(C[N+]2(C)CCCC2)COC(=O)N1Cl.[Cl-] (stereo not given)
76

Cool, now CC1(CS(=O)(=O)CCCC(=O)O)COC(=O)N1Cl (stereo not given)
14

Cool, now CC1(CS(=O)(=O)[O-])COC(=O)N1Cl.[Na+] (stereo not given)
1.4

----------
// CC50 at 1 h lookup, one value per entry
# test: Cytotoxicity against mouse L929 cells after 1 hr at pH 7 by Dojindo cell proliferation assay
# Format: cell-based
# unit: µM | format: bare number

>  <molecule>
CC1(CS(=O)(=O)[O-])COC(=O)N1Cl.[Na+] (stereo unspecified)

>  <CC50 at 1 h, µM>
800

$$$$
>  <molecule>
CC1(C)C(CS(=O)(=O)[O-])OC(=O)N1Cl.[Na+] (stereo unspecified)

>  <CC50 at 1 h, µM>
4300

$$$$
>  <molecule>
CC1(C)C(C[N+](C)(C)C)OC(=O)N1Cl.[Cl-] (stereo unspecified)

>  <CC50 at 1 h, µM>
690

$$$$
>  <molecule>
CC1(CS(=O)(=O)CCS(=O)(=O)[O-])COC(=O)N1Cl.[Na+] (stereo unspecified)

>  <CC50 at 1 h, µM>
600

$$$$

# CC50 at 1 h lookup, item `CC1(C)COC(=O)N1Cl`
70

Cool, now CC1(CS(=O)(=O)CCCC(=O)O)COC(=O)N1Cl (stereo unspecified)
520

----------
// CC50 at 1 h lookup, one value per entry
# test: Cytotoxicity against mouse L929 cells after 1 hr at pH 4 by Dojindo cell proliferation assay
# Format: cell-based
# unit: µM | format: bare number

These recorded examples may help you get a feel for the data.
>  <compound>
CCC[N+](C)(C)CC1(C)COC(=O)N1Cl.[Cl-] (centres undefined)

>  <measured>
900

$$$$
>  <compound>
CC[N+](C)(C)CC1(C)COC(=O)N1Cl.[Cl-] (centres undefined)

>  <measured>
860

$$$$
>  <compound>
CC1(C[N+]2(C)CCCC2)COC(=O)N1Cl.[Cl-] (centres undefined)

>  <measured>
1130

$$$$

From here, focus on the item given below.
# CC50 at 1 h lookup, item `C[N+]1(C)CCC2(CC1)CN(Cl)C(=O)O2.[Cl-]`
700

----------
// MBC lookup, one value per entry
# Tested on: Escherichia coli
# test: Antibacterial activity against Escherichia coli ATCC 25922 at pH 7 by CLSI M26A method
# Format: functional
# unit: µg/mL | format: bare number

These recorded examples may help you get a feel for the data.
>  <molecule>
CC1(C[N+](C)(C)C)COC(=O)N1Cl.[Cl-] (stereo unspecified)

>  <quantity name>
MBC

>  <units of measure>
µg/mL

>  <measured>
2

$$$$
>  <molecule>
C[N+]1(C)CCC2(CC1)CN(Cl)C(=O)O2.[Cl-]

>  <quantity name>
MBC

>  <units of measure>
µg/mL

>  <measured>
16

$$$$
>  <molecule>
CC1(C)COC(=O)N1Cl

>  <quantity name>
MBC

>  <units of measure>
µg/mL

>  <measured>
1

$$$$

# MBC lookup, item CC[N+](C)(C)CC1(C)COC(=O)N1Cl.[Cl-] (stereo unspecified)
2

Cool, now CC1(CS(=O)(=O)[O-])COC(=O)N1Cl.[Na+] (stereo unspecified)
256

Cool, now CC1(C[N+]2(C)CCCC2)COC(=O)N1Cl.[Cl-] (stereo unspecified)
4

Cool, now CC1(CS(=O)(=O)CCS(=O)(=O)[O-])COC(=O)N1Cl.[Na+] (stereo unspecified)
16

Cool, now CC1(C)C(C[N+](C)(C)C)OC(=O)N1Cl.[Cl-] (stereo unspecified)
16

Cool, now CC1(C)C(CS(=O)(=O)[O-])OC(=O)N1Cl.[Na+] (stereo unspecified)
256

Cool, now CC1(CS(=O)(=O)CCCC(=O)O)COC(=O)N1Cl (stereo unspecified)
16

Cool, now CCC[N+](C)(C)CC1(C)COC(=O)N1Cl.[Cl-] (stereo unspecified)
2
